Below, each entry is listed with its recorded GI50.
tested on: M14; test: NCI tumour cell line growth inhibition, 48 h
Calls of active or inactive are those of the source. Cut-off read from the data, not from the text of the source: active = GI50 up to about 1.1 µM and inactive = higher.

Answered cases to consult:
Q. Which GI50 is reported with M14 for this entry: "Cc1c(N2C(=O)/C(=C/c3ccc(Cl)cc3)N=C2c2ccccc2)c(=O)n(-c2ccccc2)n1C" ?
A. 36.8 µM (inactive)

Q. Which GI50 is reported with M14 for this entry: "COC(=O)c1c[nH]c2nc(N3CCOCC3)nn2c1=O" ?
A. > 100 µM (inactive)

Q. Which GI50 is reported with M14 for this entry: CN1c2ccccc2N(C(=O)c2ccc([N+](=O)[O-])cc2)C(CC(=O)O)c2cccn21 (centres undefined) ?
A. > 100 µM (inactive)

Q. Which GI50 is reported with M14 for this entry: "Cn1nc(-c2ccccc2)c(C(=O)/C=C/c2ccc(Cl)cc2)c(N2CCCCC2)c1=O" ?
A. 3.15 µM (inactive)

Q. Which GI50 is reported with M14 for this entry: "CCN(CC)CCNC(=O)c1cc2cc(NC(=O)c3cc4cc(NC(=O)c5cc6cc(N)ccc6[nH]5)ccc4[nH]3)ccc2[nH]1" ?
A. > 100 µM (inactive)

---
Q. Which GI50 is reported with M14 for this entry: "COc1ccc(Br)c(CN2CCc3ccccc32)c1OS(=O)(=O)c1ccc(C)cc1" ?
A. 13.9 µM (inactive)

Q. Which GI50 is reported with M14 for this entry: O=C1N/C(=N/N=C/C(O)C(O)C(O)C(O)CO)N/C1=C\c1cccs1 (centres undefined) ?
A. > 100 µM (inactive)

Q. Which GI50 is reported with M14 for this entry: COC1=CC(=O)O/C1=C(\OC)C1OC1c1ccccc1 (centres undefined) ?
A. > 100 µM (inactive)

----------
system: HOP-62; test: NCI tumour cell line growth inhibition, 48 h
Active and inactive are the calls of the source. Rule as the data show it: active = GI50 up to about 1.1 µM and inactive = higher.
measured_quantity: GI50

Q. Fill in the blank: the reported GI50 of CC1=C(CC2C(=O)N(c3ccccc3)S(=O)(=O)NC2C)C(=O)N(c2ccccc2)S(=O)(=O)N1C (centres undefined) is ____.
A. > 100 µM (inactive)

Q. Fill in the blank: the reported GI50 of O=c1ccn(C2OC(COC3CCCCO3)C(OC3CCCCO3)C2OC2CCCCO2)c(=O)n1-c1ccccc1 (centres undefined) is ____.
A. > 100 µM (inactive)

Q. Fill in the blank: the reported GI50 of CCC1OC(=O)CC(O)C(C)C(OC2OC(C)C(O)C(N(C)C)C2O)C(CC=O)CC(C)C(=O)/C=C/C2(C)OC2C1C (centres undefined) is ____.
A. 33.4 µM (inactive)

Q. Fill in the blank: the reported GI50 of [O-][S+](CCCl)c1c2ccccc2nc2ccccc12 (centres undefined) is ____.
A. > 100 µM (inactive)

Q. Fill in the blank: the reported GI50 of "CN/N=C(/CC(=O)c1sc(-n2nc(-c3ccccc3)cc2-c2ccccc2)nc1C)C(=O)Nc1ccc(Cl)c(Cl)c1" is ____.
A. 19.4 µM (inactive)

---
Q. Fill in the blank: the reported GI50 of "O=C1CCCCC/C=C2/CC[C@H](Sc3ccccc3)[C@@H]12" is ____.
A. 37.3 µM (inactive)

Q. Fill in the blank: the reported GI50 of COC(=O)Nc1nc2cc(S(=O)(=O)NC(CC(C)C)C(=O)OC)ccc2[nH]1 (centres undefined) is ____.
A. 3.48 µM (inactive)

Q. Fill in the blank: the reported GI50 of N#CC1C(=O)NC(=O)C(C#N)C1c1ccc(Cl)c(Cl)c1 (centres undefined) is ____.
A. 20.4 µM (inactive)

Q. Fill in the blank: the reported GI50 of COC(=O)C1OC2(CCCC3CC32)O[C@H]1C(=O)OC (some centres undefined) is ____.
A. > 100 µM (inactive)

Q. Fill in the blank: the reported GI50 of O=C(CC1(O)C(=O)Nc2c(Cl)cc(Cl)cc21)c1ccco1 (centres undefined) is ____.
A. 60.1 µM (inactive)

----------
Below, each entry is listed with its recorded GI50.
tested on: SNB-75; experiment: NCI tumour cell line growth inhibition, 48 h
The source made the active and inactive calls. Cut-off read from the data, not from the text of the source: active = GI50 up to about 1.1 µM and inactive = higher.

Answered cases to consult:
Q. Fill in the blank: the reported GI50 of "COc1ccc(C(=O)/C=C/S/C(=N/C#N)SC)cc1" is ____.
A. 27.9 µM (inactive)

Q. Fill in the blank: the reported GI50 of "O=C1/C(=C/c2ccc(Cl)cc2)N=C(c2ccccc2)N1c1nc2ccc(Sc3ccccc3)cc2[nH]1" is ____.
A. 15.8 µM (inactive)

Q. Fill in the blank: the reported GI50 of "Cc1c(C(=O)/C=C/c2ccccc2)[n+]([O-])c2ccccc2[n+]1[O-]" is ____.
A. 23.6 µM (inactive)

Q. Fill in the blank: the reported GI50 of "NC(=O)Cn1c(=O)oc2cc(C(=O)CN3CCOCC3)ccc21" is ____.
A. 18.5 µM (inactive)

Q. Fill in the blank: the reported GI50 of "COc1ccc2nc3cc(Cl)ccc3c(NCCNCCCNC(=O)c3cc(-c4ccccc4)nc4ccccc34)c2c1" is ____.
A. > 100 µM (inactive)

Q. Fill in the blank: the reported GI50 of "C[C@@H]1CC(=O)C[C@@H]2CC[C@H]3[C@@H]4CC[C@H](OC(=O)c5cccc6cc7ccccc7nc56)[C@H]4CC[C@@H]3[C@H]21" is ____.
A. 15.6 µM (inactive)

Q. Fill in the blank: the reported GI50 of "Cc1ccc(S(=O)(=O)NC(=O)C2=C(c3ccccc3)[N-]N(C)c3nc4cccc[n+]4nc32)cc1" is ____.
A. 57.4 µM (inactive)

Q. Fill in the blank: the reported GI50 of "O=C(O)c1ccccc1NCn1c(=S)sc2ccccc21" is ____.
A. > 100 µM (inactive)

Q. Fill in the blank: the reported GI50 of S=c1c2nc[nH]c2ncn1CCSC1=NC=NC2=NC=NC21 (stereo unspecified) is ____.
A. > 66.1 µM (inactive)

Q. Fill in the blank: the reported GI50 of "O=C1c2cccc3cccc(c23)C(=O)N1O" is ____.
A. 27.7 µM (inactive)

Now for the molecule whose GI50 we want.
Q. Fill in the blank: the reported GI50 of COc1ccc(/C=C2\CC3C4CC=C5C[C@@H](O)CC[C@]5(C)C4CC[C@]3(C)C2=O)cc1OC (stereo partly specified) is ____.
A. 16 µM (inactive)

----------
system: SF-295; assay: NCI tumour cell line growth inhibition, 48 h
The source made the active and inactive calls. Rule as the data show it: active = GI50 up to about 1.1 µM and inactive = higher.
Would you mind answering with one of these outcomes? 1 = active, -1 = inactive

Q. Tell me the assay call for "COc1ccc(/C=C(\C2=NC(=O)CS2)c2nc3ccccc3[nH]2)cc1" please.
A. -1

Q. Tell me the assay call for "O=c1sc(Nc2ccc3ccccc3c2Cl)nc2ccccc12" please.
A. -1

Q. Tell me the assay call for "O=C(O)/C=C/c1c[nH]c(=O)[nH]c1=O" please.
A. -1

Q. Tell me the assay call for "Cc1nc(C)c(C(=O)NNC(=O)Cc2ccccc2)cc1C(=O)NNC(=O)Cc1ccccc1" please.
A. -1

Q. Tell me the assay call for "O=C1/C(=C/c2ccc(Cl)cc2)N=C(c2ccccc2)N1c1nc2ccc(Sc3ccccc3)cc2[nH]1" please.
A. -1

Q. Tell me the assay call for "CCn1c2ccccc2c2cc(/N=N\c3ccc(C#N)cc3)ccc21" please.
A. -1

Q. Tell me the assay call for "CCN(CC)CCO/N=C1\CC[C@H]2[C@@H]3CCc4cc(OC)ccc4[C@H]3CC[C@]12C" please.
A. -1

Q. Tell me the assay call for CC(C)=CC(O)C(C(O)CCC1(C)OCCO1)S(=O)(=O)c1ccccc1 (configuration not stated) please.
A. -1

Q. Tell me the assay call for "COc1ccc(Cc2cc(OC)c(OC)c(OC)c2)cc1O" please.
A. 1

Q. Tell me the assay call for "O=c1c(Sc2ncccn2)c(Sc2ncccn2)cnn1CCl" please.
A. -1

Q. Tell me the assay call for "Cc1ccc(/C=C2\Cc3c(C)cc(C)cc3C2=O)c(C(=O)O)c1" please.
A. -1

Q. Tell me the assay call for CC(=O)C1C(=O)C(=O)N(c2ccc(Cl)cc2C)C1=O (configuration not stated) please.
A. -1

Q. Tell me the assay call for "C/C(=N\NC(=O)c1ccncc1)c1sc(-n2nc(-c3ccccc3)cc2-c2ccccc2)nc1C" please.
A. -1

Q. Tell me the assay call for COC1=CC(=O)O/C1=C(\OC)C1OC1c1ccccc1 (configuration not stated) please.
A. -1

----------
system: MCF7; assay: NCI tumour cell line growth inhibition, 48 h
Active and inactive are the calls of the source. No stated cut-off is given here; in the data, active = GI50 up to about 1.1 µM and inactive = higher.
Would you mind answering with one of these outcomes? class 1 (active), class 0 (inactive)

Q. Tell me the assay call for COC(=O)c1cc2c3c(cc(N(C)C)c2[nH]1)N(C(=O)c1cc2cc(OC)c(OC)c(OC)c2[nH]1)CC3CCl (centres undefined) please.
A. class 1

Q. Tell me the assay call for "Cc1ccc2nc(NC(=O)/C(Cc3nc4ccc(Cl)cc4nc3O)=N\NC(C)(C)C)sc2c1" please.
A. class 0

Q. Tell me the assay call for COc1c2c(cc3c1C(O)N1CC[C@]34[C@H]3O[C@H]3[C@H](OC)C[C@@H]14)OCO2 (some centres undefined) please.
A. class 0

Q. Tell me the assay call for N#C[C@H]1Nc2ccccc2[C@@H](O)C1O (some centres undefined) please.
A. class 0
